- EXPERIMENT: Total clearance at 10 mg/kg was determined in rat
- Format: ADME, organism-based
- Set-up: dose 10 mg/kg
- EXPERIMENTAL_PARAMETERS: in vivo
READOUT_TYPE: clearance
Field note: include the unit after the figure.

What does the data say about its clearance? Entry: `CCC[C@@H]1CC(=O)N([C@@H](CC)C(N)=O)C1`
4.67 mL/min/kg

---

- EXPERIMENT: Total clearance at 1 mg/kg was determined in rat
- Format: ADME, organism-based
- Set-up: dose 1 mg/kg
- EXPERIMENTAL_PARAMETERS: in vivo
READOUT_TYPE: clearance (mL/min/kg)
Express the result in mL/min/kg but write the number alone.

What does the data say about its clearance? Entry: `CC[C@@H](C(N)=O)N1C[C@H](CI)CC1=O`
4.8

Where do these numbers come from? They come from ChEMBL document CHEMBL1148391.
